Hey, just so you know, these numbers are from patent US20200223889A1.

target: T1, human melanocortin 4 receptor (human, UniProt P32245 1-332); assay: competition with 125-NDP-α-MSH, BHK human MC4R membranes
T1 construct: whole, on cells; cAMP assay on whole BHK cells; also called MC4R; human MC4 receptor
T1 sequence (P32245 whole entry): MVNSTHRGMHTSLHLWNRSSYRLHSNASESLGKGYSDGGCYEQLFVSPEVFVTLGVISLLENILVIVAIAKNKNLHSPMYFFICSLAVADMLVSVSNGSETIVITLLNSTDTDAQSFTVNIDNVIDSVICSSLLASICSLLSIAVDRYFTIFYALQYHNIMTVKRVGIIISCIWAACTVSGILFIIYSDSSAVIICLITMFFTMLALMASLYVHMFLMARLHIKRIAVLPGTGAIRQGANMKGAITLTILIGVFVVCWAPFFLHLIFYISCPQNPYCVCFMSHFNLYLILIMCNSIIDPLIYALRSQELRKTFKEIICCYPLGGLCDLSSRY
Positions of bridges follow the written chain, without caps; N, C: chain ends. Non-standard residues stand in square brackets, D forms with d. Cit = NC(=O)NCCC[C@H](N)C(=O)O; Pen = CC(C)(S)[C@H](N)C(=O)O; Thz = O=C(O)[C@@H]1CSCN1; Api = NC1(C(=O)O)CCNCC1; Sar = CNCC(=O)O
Lab note: compare Ki with 0.3 nM, writing T if less and F if equal or more.

Prompt: For this binder, is Ki lower than 0.3 nM? cyclo(C[Api]H[dF]HWC[Api]H[dF]HW) (disulfide 1-7; SMILES O=C1N[C@H]2CSSC[C@H](NC(=O)[C@H](Cc3c[nH]c4ccccc34)NC(=O)[C@H](Cc3c[nH]cn3)NC(=O)[C@@H](Cc3ccccc3)NC(=O)[C@H](Cc3c[nH]cn3)NC(=O)C3(CCNCC3)NC2=O)C(=O)NC2(CCNCC2)C(=O)N[C@@H](Cc2c[nH]cn2)C(=O)N[C@H](Cc2ccccc2)C(=O)N[C@@H](Cc2c[nH]cn2)C(=O)N[C@H]1Cc1c[nH]c2ccccc12, also called c[c[Cys-ACP-His-D-Phe-His-Trp-Cys]-ACP-His-D-Phe-His-Trp]) [Chem. 50]
Completion: F

Prompt: is_below(Ki, 0.3 nM) for cyclo(CAH[dF][Cit]WCAEEEW) (disulfide 1-7; SMILES C[C@@H]1NC(=O)[C@@H]2CSSC[C@H](NC(=O)[C@H](Cc3c[nH]c4ccccc34)NC(=O)[C@H](CCCNC(N)=O)NC(=O)[C@@H](Cc3ccccc3)NC(=O)[C@H](Cc3c[nH]cn3)NC1=O)C(=O)N[C@@H](C)C(=O)N[C@@H](CCC(=O)O)C(=O)N[C@@H](CCC(=O)O)C(=O)N[C@@H](CCC(=O)O)C(=O)N[C@@H](Cc1c[nH]c3ccccc13)C(=O)N2, also called c[c[Cys-Ala-His-D-Phe-Cit-Trp-Cys]-Ala-Glu-Glu-Glu-Trp]) [Chem. 45] ?
Completion: F

Prompt: Dear reviewer, please state whether cyclo(C[Thz]H[dF]HWCAKKAW) (disulfide 1-7; SMILES C[C@@H]1NC(=O)[C@H](CCCCN)NC(=O)[C@H](CCCCN)NC(=O)[C@H](C)NC(=O)[C@@H]2CSSC[C@H](NC(=O)[C@H](Cc3c[nH]c4ccccc34)NC1=O)C(=O)N1CSC[C@H]1C(=O)N[C@@H](Cc1c[nH]cn1)C(=O)N[C@H](Cc1ccccc1)C(=O)N[C@@H](Cc1c[nH]cn1)C(=O)N[C@@H](Cc1c[nH]c3ccccc13)C(=O)N2, also called c[c[Cys-THAZ-His-D-Phe-His-Trp-Cys]-Ala-Lys-Lys-Ala-Trp]) [Chem. 110] has Ki strictly beneath 0.3 nM.
Completion: T

Prompt: Hello, is Ki of the following binder strictly smaller than 0.3 nM? CXHFRWCXHFRW (Aib 2, 8; D-Phe 4, 10; disulphide Cys1-Cys7; head-to-tail amide Cys1-Trp12, also called c[c[Cys-Aib-His-D-Phe-Arg-Trp-Cys]-Aib-His-D-Phe-Arg-Trp]) [Chem. 9]
Completion: T

Next:
Prompt: Field: below-cutoff. Rule: recorded Ki strictly less than 0.3 nM. Subject: cyclo(C[Thz]H[dF]HWCADDAW) (disulfide 1-7; SMILES C[C@@H]1NC(=O)[C@H](CC(=O)O)NC(=O)[C@H](CC(=O)O)NC(=O)[C@H](C)NC(=O)[C@@H]2CSSC[C@H](NC(=O)[C@H](Cc3c[nH]c4ccccc34)NC1=O)C(=O)N1CSC[C@H]1C(=O)N[C@@H](Cc1c[nH]cn1)C(=O)N[C@H](Cc1ccccc1)C(=O)N[C@@H](Cc1c[nH]cn1)C(=O)N[C@@H](Cc1c[nH]c3ccccc13)C(=O)N2, also called c[c[Cys-THAZ-His-D-Phe-His-Trp-Cys]-Ala-Asp-Asp-Ala-Trp]) [Chem. 106]
Completion: F

Prompt: Please state whether Ki is below 0.3 nM for cyclo(C[Sar]H[dF]HWCAKKKR) (disulfide 1-7; SMILES C[C@@H]1NC(=O)[C@@H]2CSSC[C@H](NC(=O)[C@H](CCCNC(=N)N)NC(=O)[C@H](CCCCN)NC(=O)[C@H](CCCCN)NC(=O)[C@H](CCCCN)NC1=O)C(=O)N(C)CC(=O)N[C@@H](Cc1c[nH]cn1)C(=O)N[C@H](Cc1ccccc1)C(=O)N[C@@H](Cc1c[nH]cn1)C(=O)N[C@@H](Cc1c[nH]c3ccccc13)C(=O)N2, also called c[c[Cys-Sar-His-D-Phe-His-Trp-Cys]-Ala-Lys-Lys-Lys-Arg]) [Chem. 74]
Completion: T

Prompt: Regarding XAHFRWCAHXRW (Pen 1; D-Phe 4, 10; disulphide Pen1-Cys7; head-to-tail amide Pen1-Trp12, also called c[c[Pen-Ala-His-D-Phe-Arg-Trp-Cys]-Ala-His-D-Phe-Arg-Trp]) [Chem. 63] , kindly confirm whether its Ki is beneath 0.3 nM.
Completion: T

Prompt: For this binder, is Ki lower than 0.3 nM? cyclo([Pen]PH[dF]HWCAKKKR) (disulfide 1-7; SMILES C[C@@H]1NC(=O)[C@@H]2CSSC(C)(C)[C@H](NC(=O)[C@H](CCCNC(=N)N)NC(=O)[C@H](CCCCN)NC(=O)[C@H](CCCCN)NC(=O)[C@H](CCCCN)NC1=O)C(=O)N1CCC[C@H]1C(=O)N[C@@H](Cc1c[nH]cn1)C(=O)N[C@H](Cc1ccccc1)C(=O)N[C@@H](Cc1c[nH]cn1)C(=O)N[C@@H](Cc1c[nH]c3ccccc13)C(=O)N2, also called c[c[Pen-Pro-His-D-Phe-His-Trp-Cys]-Ala-Lys-Lys-Lys-Arg]) [Chem. 92]
Completion: T

Prompt: Problem: For the binder cyclo(CPH[dF]HWCAHKKR) (disulfide 1-7; SMILES C[C@@H]1NC(=O)[C@@H]2CSSC[C@H](NC(=O)[C@H](CCCNC(=N)N)NC(=O)[C@H](CCCCN)NC(=O)[C@H](CCCCN)NC(=O)[C@H](Cc3c[nH]cn3)NC1=O)C(=O)N1CCC[C@H]1C(=O)N[C@@H](Cc1c[nH]cn1)C(=O)N[C@H](Cc1ccccc1)C(=O)N[C@@H](Cc1c[nH]cn1)C(=O)N[C@@H](Cc1c[nH]c3ccccc13)C(=O)N2, also called c[c[Cys-Pro-His-D-Phe-His-Trp-Cys]-Ala-His-Lys-Lys-Arg]) [Chem. 96] , is Ki under 0.3 nM?
Completion: T
